assay_target: CYP1A (Homo sapiens)
measurement_description: CYP isoform inhibition in human liver microsomes (Cyprotex)
condition: human, human liver microsomes
Non-standard residues stand in square brackets, D forms with d. Residues, ends and D or L forms follow the SMILES beside them.
observation_type: inhibition at 2.5 µM

INSERT INTO measurements (molecule, assay_target, observation_type, recorded_value) VALUES
  ('CC(C)C[C@@H](NC(=O)[C@H](NC(=O)[C@H]1CCCN1)[C@H](C)O)C(=O)N[C@H](Cc1c[nH]cn1)C(=O)N[C@@H](C(=O)N[C@H](Cc1c[nH]cn1)C(=O)N[C@H](CC(N)=O)C(=O)N[C@H](CCCNC(=N)N)C(=O)N[C@H](CCCNC(=N)N)C(=O)N[C@H](CCCNC(=N)N)C(=O)N[C@H](CCCNC(=N)N)C(=O)N[C@H](CCCNC(=N)N)C(N)=O)[C@H](C)O [RD2, ptlhthnrrrrr] (H-[dP][dT][dL][dH][dT][dH][dN][dR][dR][dR][dR][dR]-NH2)', 'CYP1A (Homo sapiens)', 'inhibition at 2.5 µM', '1.34%');

###

assay_target: UniProt P08684
measurement_description: CYP isoform inhibition in human liver microsomes (Cyprotex)
condition: human, human liver microsomes
Non-standard residues stand in square brackets, D forms with d. Residues, ends and D or L forms follow the SMILES beside them.
observation_type: inhibition at 0.25 µM (%)

INSERT INTO measurements (molecule, observation_type, recorded_value) VALUES
  ('CC(C)C[C@@H](NC(=O)[C@H](NC(=O)[C@H]1CCCN1)[C@H](C)O)C(=O)N[C@H](Cc1c[nH]cn1)C(=O)N[C@@H](C(=O)N[C@H](Cc1c[nH]cn1)C(=O)N[C@H](CC(N)=O)C(=O)N[C@H](CCCNC(=N)N)C(=O)N[C@H](CCCNC(=N)N)C(=O)N[C@H](CCCNC(=N)N)C(=O)N[C@H](CCCNC(=N)N)C(=O)N[C@H](CCCNC(=N)N)C(N)=O)[C@H](C)O [RD2, ptlhthnrrrrr] (H-[dP][dT][dL][dH][dT][dH][dN][dR][dR][dR][dR][dR]-NH2)', 'inhibition at 0.25 µM', -0.223);

###

assay_target: CYP2C9 (Homo sapiens)
Sequence (P11712 whole entry, canonical isoform): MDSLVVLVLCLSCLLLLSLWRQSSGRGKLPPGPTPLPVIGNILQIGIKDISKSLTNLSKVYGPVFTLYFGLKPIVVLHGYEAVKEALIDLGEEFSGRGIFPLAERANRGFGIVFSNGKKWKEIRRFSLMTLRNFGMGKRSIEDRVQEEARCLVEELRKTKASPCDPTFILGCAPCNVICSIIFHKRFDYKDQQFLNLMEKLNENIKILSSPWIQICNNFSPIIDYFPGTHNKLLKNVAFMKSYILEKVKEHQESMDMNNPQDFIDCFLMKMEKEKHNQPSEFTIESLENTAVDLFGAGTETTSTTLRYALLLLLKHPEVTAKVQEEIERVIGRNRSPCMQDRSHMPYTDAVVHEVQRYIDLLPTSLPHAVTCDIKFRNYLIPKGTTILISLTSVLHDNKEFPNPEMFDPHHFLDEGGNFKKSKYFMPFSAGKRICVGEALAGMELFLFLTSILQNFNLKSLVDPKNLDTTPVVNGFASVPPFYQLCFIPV
measurement_description: CYP isoform inhibition in human liver microsomes (Cyprotex)
condition: human, human liver microsomes
Non-standard residues stand in square brackets, D forms with d. Residues, ends and D or L forms follow the SMILES beside them.
observation_type: inhibition at 1 µM (%)

INSERT INTO measurements (compound, recorded_value) VALUES
  ('CC(C)C[C@@H](NC(=O)[C@H](NC(=O)[C@H]1CCCN1)[C@H](C)O)C(=O)N[C@H](Cc1c[nH]cn1)C(=O)N[C@@H](C(=O)N[C@H](Cc1c[nH]cn1)C(=O)N[C@H](CC(N)=O)C(=O)N[C@H](CCCNC(=N)N)C(=O)N[C@H](CCCNC(=N)N)C(=O)N[C@H](CCCNC(=N)N)C(=O)N[C@H](CCCNC(=N)N)C(=O)N[C@H](CCCNC(=N)N)C(N)=O)[C@H](C)O [RD2, ptlhthnrrrrr] (H-[dP][dT][dL][dH][dT][dH][dN][dR][dR][dR][dR][dR]-NH2)', -0.871);

###

assay_target: CYP1A (Homo sapiens, UniProt P05177)
measurement_description: CYP isoform inhibition in human liver microsomes (Cyprotex)
condition: human, human liver microsomes
Non-standard residues stand in square brackets, D forms with d. Residues, ends and D or L forms follow the SMILES beside them.
observation_type: inhibition at 1 µM (%)

INSERT INTO results (compound, recorded_value) VALUES
  ('CC(C)C[C@@H](NC(=O)[C@H](NC(=O)[C@H]1CCCN1)[C@H](C)O)C(=O)N[C@H](Cc1c[nH]cn1)C(=O)N[C@@H](C(=O)N[C@H](Cc1c[nH]cn1)C(=O)N[C@H](CC(N)=O)C(=O)N[C@H](CCCNC(=N)N)C(=O)N[C@H](CCCNC(=N)N)C(=O)N[C@H](CCCNC(=N)N)C(=O)N[C@H](CCCNC(=N)N)C(=O)N[C@H](CCCNC(=N)N)C(N)=O)[C@H](C)O [RD2, ptlhthnrrrrr] (H-[dP][dT][dL][dH][dT][dH][dN][dR][dR][dR][dR][dR]-NH2)', 9.42);

###

measurement_description: Comparison of RD2 metabolite profiles across species: cynomolgus liver microsomes
Assay type: in vitro ADME, cynomolgus monkey
condition: monkey, pooled cynomolgus monkey liver microsomes; cynomolgus samples, 24 h; read-out: decrease of the intensity of the RD2 peak
Non-standard residues stand in square brackets, D forms with d. Residues, ends and D or L forms follow the SMILES beside them.
observation_type: metabolised at 24 h, 150 µM (%)

INSERT INTO results (compound, observation_type, recorded_value) VALUES
  ('CC(C)C[C@@H](NC(=O)[C@H](NC(=O)[C@H]1CCCN1)[C@H](C)O)C(=O)N[C@H](Cc1c[nH]cn1)C(=O)N[C@@H](C(=O)N[C@H](Cc1c[nH]cn1)C(=O)N[C@H](CC(N)=O)C(=O)N[C@H](CCCNC(=N)N)C(=O)N[C@H](CCCNC(=N)N)C(=O)N[C@H](CCCNC(=N)N)C(=O)N[C@H](CCCNC(=N)N)C(=O)N[C@H](CCCNC(=N)N)C(N)=O)[C@H](C)O [RD2, ptlhthnrrrrr] (H-[dP][dT][dL][dH][dT][dH][dN][dR][dR][dR][dR][dR]-NH2)', 'metabolised at 24 h, 150 µM', 9);

###

assay_target: CYP3A4 (Homo sapiens)
Sequence (P08684 whole entry, canonical isoform): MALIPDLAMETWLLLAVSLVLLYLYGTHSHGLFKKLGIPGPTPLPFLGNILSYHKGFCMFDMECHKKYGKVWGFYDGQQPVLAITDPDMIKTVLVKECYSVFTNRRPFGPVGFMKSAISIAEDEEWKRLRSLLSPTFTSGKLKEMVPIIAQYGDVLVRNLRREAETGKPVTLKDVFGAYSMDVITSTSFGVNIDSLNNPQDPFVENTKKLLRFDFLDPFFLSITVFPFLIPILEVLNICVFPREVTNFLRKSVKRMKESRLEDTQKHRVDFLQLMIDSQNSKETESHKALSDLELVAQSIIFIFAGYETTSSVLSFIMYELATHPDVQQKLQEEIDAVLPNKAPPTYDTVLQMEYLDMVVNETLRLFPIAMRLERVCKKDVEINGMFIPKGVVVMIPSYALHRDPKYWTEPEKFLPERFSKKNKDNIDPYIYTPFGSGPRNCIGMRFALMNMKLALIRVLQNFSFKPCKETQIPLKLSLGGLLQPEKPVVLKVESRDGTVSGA
measurement_description: CYP isoform inhibition in human liver microsomes (Cyprotex)
condition: human, human liver microsomes
Non-standard residues stand in square brackets, D forms with d. Residues, ends and D or L forms follow the SMILES beside them.
observation_type: inhibition at 1 µM (%)

INSERT INTO results (molecule, output_unit, recorded_value) VALUES
  ('CC(C)C[C@@H](NC(=O)[C@H](NC(=O)[C@H]1CCCN1)[C@H](C)O)C(=O)N[C@H](Cc1c[nH]cn1)C(=O)N[C@@H](C(=O)N[C@H](Cc1c[nH]cn1)C(=O)N[C@H](CC(N)=O)C(=O)N[C@H](CCCNC(=N)N)C(=O)N[C@H](CCCNC(=N)N)C(=O)N[C@H](CCCNC(=N)N)C(=O)N[C@H](CCCNC(=N)N)C(=O)N[C@H](CCCNC(=N)N)C(N)=O)[C@H](C)O [RD2, ptlhthnrrrrr] (H-[dP][dT][dL][dH][dT][dH][dN][dR][dR][dR][dR][dR]-NH2)', '%', 5.77);

###

measurement_description: MTT cell viability assay
Format: cell-based, rat
condition: cell viability
Non-standard residues stand in square brackets, D forms with d. Residues, ends and D or L forms follow the SMILES beside them. *: point of attachment. X1 = C[C@H](O)[C@H](C(=O)*)N1CN2CCC[C@@H]2C1=O
observation_type: viability at 2 µM

INSERT INTO assay_data (compound, observation_type, recorded_value) VALUES
  ('CC(C)C[C@@H](NC(=O)[C@@H]([C@H](C)O)N1CN2CCC[C@@H]2C1=O)C(=O)N[C@H](Cc1c[nH]cn1)C(=O)N[C@@H](C(=O)N[C@H](Cc1c[nH]cn1)C(=O)N[C@H](CC(N)=O)C(=O)N[C@H](CCCNC(=N)N)C(=O)N[C@H](CCCNC(=N)N)C(=O)N[C@H](CCCNC(=N)N)C(=O)N[C@H](CCCNC(=N)N)C(=O)N[C@H](CCCNC(=N)N)C(N)=O)[C@H](C)O [HSM-3] (X1-[dL][dH][dT][dH][dN][dR][dR][dR][dR][dR]-NH2; C-terminus assumed)', 'viability at 2 µM', '99%');

###

assay_target: UniProt P05177
Sequence (P05177 2-516): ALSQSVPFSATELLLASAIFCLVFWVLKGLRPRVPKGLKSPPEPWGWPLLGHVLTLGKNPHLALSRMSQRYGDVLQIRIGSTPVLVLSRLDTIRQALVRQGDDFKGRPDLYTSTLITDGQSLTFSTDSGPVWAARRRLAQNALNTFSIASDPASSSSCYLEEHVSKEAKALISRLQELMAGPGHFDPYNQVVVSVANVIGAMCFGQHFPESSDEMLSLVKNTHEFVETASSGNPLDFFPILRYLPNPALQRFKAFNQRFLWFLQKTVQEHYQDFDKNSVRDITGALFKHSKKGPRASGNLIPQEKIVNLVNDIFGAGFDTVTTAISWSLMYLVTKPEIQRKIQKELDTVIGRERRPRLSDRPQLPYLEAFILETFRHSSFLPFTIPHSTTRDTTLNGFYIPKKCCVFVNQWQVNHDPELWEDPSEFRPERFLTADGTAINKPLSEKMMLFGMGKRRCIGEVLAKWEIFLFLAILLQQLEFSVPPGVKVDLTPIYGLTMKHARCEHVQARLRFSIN
measurement_description: CYP isoform inhibition in human liver microsomes (Cyprotex)
condition: human, human liver microsomes
Non-standard residues stand in square brackets, D forms with d. Residues, ends and D or L forms follow the SMILES beside them.
observation_type: inhibition at 0.25 µM (%)

INSERT INTO assay_data (compound, recorded_value) VALUES
  ('CC(C)C[C@@H](NC(=O)[C@H](NC(=O)[C@H]1CCCN1)[C@H](C)O)C(=O)N[C@H](Cc1c[nH]cn1)C(=O)N[C@@H](C(=O)N[C@H](Cc1c[nH]cn1)C(=O)N[C@H](CC(N)=O)C(=O)N[C@H](CCCNC(=N)N)C(=O)N[C@H](CCCNC(=N)N)C(=O)N[C@H](CCCNC(=N)N)C(=O)N[C@H](CCCNC(=N)N)C(=O)N[C@H](CCCNC(=N)N)C(N)=O)[C@H](C)O [RD2, ptlhthnrrrrr] (H-[dP][dT][dL][dH][dT][dH][dN][dR][dR][dR][dR][dR]-NH2)', 6.18);
